Overview of reported 14-Methylhexadecanoic acid, ratio versus control across a group of compounds:
Experiment: Plasma metabolite profiling (GC-MS, LC-MS, SPE-LC-MS) of rats dosed once daily over 28 days; treatment ratios versus untreated control
Assay type: in vivo, rat
Details: plasma, female rats, day 28, high dose, Table 6b
Structures can show the parent of a compound that is named as a salt. Marks after values point to notes of the source that are not given here.

Worked examples, 4 compounds total:
>>> test_value("C=CCN1C[C@H](C(=O)N(CCCN(C)C)C(=O)NCC)C[C@@H]2c3cccc4[nH]cc(c34)C[C@H]21 [Cabergoline]")
"0.74*"
>>> test_value("CC(C)C[C@H]1C(=O)N2CCC[C@H]2[C@]2(O)O[C@](NC(=O)[C@@H]3C=C4c5cccc6[nH]c(Br)c(c56)C[C@H]4N(C)C3)(C(C)C)C(=O)N12 [Bromocriptine Mesylate]")
"0.85*"
>>> test_value("C#C[C@]1(O)CC[C@H]2[C@@H]3CCc4cc(O)ccc4[C@H]3CC[C@@]21C [17-alpha-Ethynylestradiol]")
"0.86*"
>>> test_value("C#CCN(C)[C@H](C)Cc1ccccc1 [Selegiline hydrochloride]")
1.04

Continue with the compound presented below.
Q: Data request, read-out 14-Methylhexadecanoic acid, ratio versus control, for CN1CCc2cccc3c2[C@H]1Cc1ccc(O)c(O)c1-3 [Apomorphine]
A: 0.83*

---

Assay: Plasma metabolite profiling (GC-MS, LC-MS, SPE-LC-MS) of rats dosed once daily over 28 days; treatment ratios versus untreated control
Assay type: in vivo, rat
Conditions: rat, in vivo
Structures can show the parent of a compound that is named as a salt. Marks after values point to notes of the source that are not given here.
Below, each entry is listed alongside its reported alpha-Tocopherol, ratio versus control.

Sample answers from the record:
>>> test_value("Fc1ccc([C@@H]2CCNC[C@H]2COc2ccc3c(c2)OCO3)cc1 [Paroxetine hydrochloride]")
"1.32*"
>>> test_value("CCCC(C)C1(CC)C(=O)NC(=O)NC1=O (stereo not shown) [Pentobarbital sodium i.p., Pentobarbital sodium]")
"1.23 *"

Q: Dear colleague, I am looking for the recorded alpha-Tocopherol, ratio versus control of the following molecule: CCC1(c2ccccc2)C(=O)NC(=O)NC1=O [Phenobarbital sodium]
A: 1.14 *

Q: // returns reported alpha-Tocopherol, ratio versus control for input O=C1NC(=O)C(c2ccccc2)(c2ccccc2)N1 [Phenytoin]
A: 1.16 *

---

Assay: Plasma metabolite profiling (GC-MS, LC-MS, SPE-LC-MS) of rats dosed once daily over 28 days; treatment ratios versus untreated control
Type: in vivo, rat
Conditions: plasma, female rats, day 28, high dose, Table 6b
Counter-ions that a name gives are not always drawn. Marks after values point to notes of the source that are not given here.
parameter: Phosphatidylcholine (C16:0, C20:4), ratio versus control

>>> test_value("CN1CCc2cccc3c2[C@H]1Cc1ccc(O)c(O)c1-3 [Apomorphine]")
"0.88*"
>>> test_value("C#CCN(C)[C@H](C)Cc1ccccc1 [Selegiline hydrochloride]")
"0.94*"
>>> test_value("C=CCN1C[C@H](C(=O)N(CCCN(C)C)C(=O)NCC)C[C@@H]2c3cccc4[nH]cc(c34)C[C@H]21 [Cabergoline]")
0.97
>>> test_value("C#C[C@]1(O)CC[C@H]2[C@@H]3CCc4cc(O)ccc4[C@H]3CC[C@@]21C [17-alpha-Ethynylestradiol]")
"0.78*"

In the following, a different compound is considered.
Q: Phosphatidylcholine (C16:0, C20:4), ratio versus control lookup needed for CC(C)C[C@H]1C(=O)N2CCC[C@H]2[C@]2(O)O[C@](NC(=O)[C@@H]3C=C4c5cccc6[nH]c(Br)c(c56)C[C@H]4N(C)C3)(C(C)C)C(=O)N12 [Bromocriptine Mesylate] , thanks.
A: 0.94*
